System: HOP-62 NSCLC
experimental_details: NCI-60 one-dose screen, 48 h
measurement_parameters: 10 µM unless noted
The panel holds about 83,000 compounds, 20% with a hit somewhere; the sample as a whole holds those more often. Calls of active or inactive are those of the source. Rule for the calls: active = growth percent below 10; inactive = the rest.
# output must be one of True for active, False for inactive

These solved cases illustrate the format of a correct answer.
Check the results log: what was the call for `C=C(C)[C@@H]1CC[C@]2(C(=O)OC)CC[C@]3(C)[C@H](CC[C@@H]4[C@@]5(C)C/C(=C/c6cccc(I)c6)C(=O)C(C)(C)[C@@H]5CC[C@]43C)[C@@H]12` ? False

Now give it for `CCOC(=O)c1sc(Nc2ccc(Cl)cc2)nc1C` too. False

Now give it for `CCCc1cc(=O)n2c(C(=O)Nc3cccc(C(=O)OCC)c3)c(C(=O)Nc3ccc(F)cc3)sc2n1` too. False

Continuing:
Check the results log: what was the call for `Cc1cc(N2CCOCC2)nc(N[C@@H]2CCC[C@H](Nc3ccnc4cc(Cl)ccc34)C2)n1` ? True

Now give it for `COc1cc2c(cc1O)CC[C@@H]1[C@@H]2CC[C@]2(C)[C@@H](OCCCN(C)C)CC[C@@H]12` too. True

Now give it for `Nc1nc2ncc(CCNc3ccc(C(=O)O)cc3)nc2c(=O)[nH]1` too. False

Now give it for `NC(=NCCCOc1ccc(Cl)cc1)Nc1ccc(Cl)cc1` too. False

Now give it for `COc1cccc(-c2nc3sccn3c2-c2ccnc(NCCCNS(=O)(=O)c3cccc(Cl)c3)c2)c1` too. False

Now give it for `Cc1ccc(OC(=O)c2ccc(Cl)cc2)cc1` too. False
